# Test system: OS-RC-2
# assay_method_text: Cytotoxicity against human OS-RC2 cells by MTT assay
# Type: functional, cell-based
// reported IC50 per item
The response must be a number in µM with no trailing unit.

{"entry_smiles": "CCN(CC)CCNCc1cc2c3ccccc3n(CCCc3ccccc3)c2c(-c2cc(OC)c(OC)c(OC)c2)n1", "IC50 [µM]": 3}
{"entry_smiles": "CCCCn1c2ccccc2c2cc(CNCCCN(C)C)nc(-c3cc(OC)c(OC)c(OC)c3)c21", "IC50 [µM]": 25.6}

Here is another compound to look at.
Request: Query (compound): "CCN(CC)CCCCNCc1cc2c3ccccc3n(CCCc3ccccc3)c2c(-c2cc(OC)c(OC)c(OC)c2)n1" ; field requested: IC50
Response: 8.7

----------
// reported pIC50 per item
# Tested on: HT-29
# assay_method_text: Cytotoxicity against human HT-29 cells by MTT assay
# Assay type: functional, cell-based
Bear in mind: pIC50 is minus log10 of a mol/L concentration; give just that figure.

Worked set:
{"entry_smiles": "CCCCn1c2ccccc2c2cc(CNCCCN(CC)CC)nc(-c3cc(OC)c(OC)c(OC)c3)c21", "assay_target": "HT-29", "pIC50": 4.85}
{"entry_smiles": "CCN(CC)CCCCNCc1cc2c3ccccc3n(CCCc3ccccc3)c2c(-c2cc(OC)c(OC)c(OC)c2)n1", "assay_target": "HT-29", "pIC50": 5.12}
{"entry_smiles": "CCN(CC)CCNCc1cc2c3ccccc3n(CCCc3ccccc3)c2c(-c2cc(OC)c(OC)c(OC)c2)n1", "assay_target": "HT-29", "pIC50": 4.96}
{"entry_smiles": "COc1cc(-c2nc(CNCCCN(C)C)cc3c4ccccc4n(CCCc4ccccc4)c23)cc(OC)c1OC", "assay_target": "HT-29", "pIC50": 5.10}
{"entry_smiles": "CCN(CC)CCCNCc1cc2c3ccccc3n(C)c2c(-c2cc(OC)c(OC)c(OC)c2)n1", "assay_target": "HT-29", "pIC50": 4.37}

Request: Query (compound): "CCN(CC)CCCNCc1cc2c3ccccc3n(CCCc3ccccc3)c2c(-c2cc(OC)c(OC)c(OC)c2)n1" ; field requested: pIC50
Response: 5.23

Request: Please answer likewise for "CCCCn1c2ccccc2c2cc(CNCCCN(C)C)nc(-c3cc(OC)c(OC)c(OC)c3)c21"
Response: 4.95

Request: Please answer likewise for "CCCCn1c2ccccc2c2cc(CNCCCCN(CC)CC)nc(-c3cc(OC)c(OC)c(OC)c3)c21"
Response: 4.70

----------
# Test system: OS-RC-2
# assay_method_text: Cytotoxicity against human OS-RC2 cells by MTT assay
# Type: functional, cell-based
// reported pIC50 per item
Bear in mind: pIC50 is minus log10 of a mol/L concentration; give just that figure.

{"entry_smiles": "CCN(CC)CCCNCc1cc2c([nH]c3ccccc32)c(-c2cc(OC)c(OC)c(OC)c2)n1", "readout_number": 4.33}

Here is another compound to look at.
Request: Query (compound): "CCCCn1c2ccccc2c2cc(CNCCCN(CC)CC)nc(-c3cc(OC)c(OC)c(OC)c3)c21" ; field requested: pIC50
Response: 4.59

----------
// reported pIC50 per item
# Test system: KB
# assay_method_text: Cytotoxicity against human KB cells by MTT assay
# Assay type: functional, cell-based
Bear in mind: pIC50 is minus log10 of a mol/L concentration; give just that figure.

Worked set:
{"molecule": "CC(=O)O[C@H]1C(=O)[C@@]2(C)[C@H]([C@H](OC(=O)c3ccccc3)[C@]3(O)C[C@H](OC(=O)[C@H](O)[C@@H](NC(=O)c4ccccc4)c4ccccc4)C(C)=C1C3(C)C)[C@]1(OC(C)=O)CO[C@@H]1C[C@@H]2O [PACLITAXEL]", "endpoint_name": "pIC50", "readout_number": 7.10}
{"molecule": "CCN(CC)CCCCNCc1cc2c3ccccc3n(C)c2c(-c2cc(OC)c(OC)c(OC)c2)n1", "endpoint_name": "pIC50", "readout_number": 4.37}
{"molecule": "CCN(CC)CCCNCc1cc2c3ccccc3n(C)c2c(-c2cc(OC)c(OC)c(OC)c2)n1", "endpoint_name": "pIC50", "readout_number": 4.54}
{"molecule": "CCCCn1c2ccccc2c2cc(CNCCCN(C)C)nc(-c3cc(OC)c(OC)c(OC)c3)c21", "endpoint_name": "pIC50", "readout_number": 4.47}

Here is another molecule to look at.
Request: Query (molecule): "CCCCn1c2ccccc2c2cc(CNCCN(CC)CC)nc(-c3cc(OC)c(OC)c(OC)c3)c21" ; field requested: pIC50
Response: 4.35
